# Tested on: HCT 116 p53-/-
# assay protocol: Monolayer antiproliferative MTS assay
# Type: cell-based, human
# condition set: Homo sapiens, HCT-116, 72 h, 2D monolayer, MTS, 72-h incubation
pIC50: −log10 of the molar value.
pIC50 vs 6: at or above is 1.0, below is 0.0.

[
  {
    "chem smiles": "O=[N+]([O-])c1ccccc1/C=C/c1ccnc2ccccc12",
    "qualitative label": 0.0
  },
  {
    "chem smiles": "Cc1c(NC(=O)c2cc(C(N)=O)nc3cc(F)ccc23)c(C(F)(F)F)nn1Cc1ccc(C#N)cc1",
    "qualitative label": 0.0
  },
  {
    "chem smiles": "O=[N+]([O-])c1cccc(/C=C/c2ccnc3ccccc23)c1",
    "qualitative label": 0.0
  },
  {
    "chem smiles": "O=[N+]([O-])c1ccc(/C=C/c2cc(O)c3ccccc3n2)o1",
    "qualitative label": 1.0
  }
]

Does `O=[N+]([O-])c1ccc(/C=C/c2ccnc3ccccc23)o1` have a reported pIC50 of at least 6?
1.0

Does `O=[N+]([O-])c1ccc(/C=C/c2ccnc3ccccc23)cc1` have a reported pIC50 of at least 6?
0.0

Does `CC(=O)Oc1cccc2ccc(/C=C/c3ccc([N+](=O)[O-])o3)nc12` have a reported pIC50 of at least 6?
1.0

All figures here come from paper PMC11574108.
